Cited source for all entries: the supplement of paper PMC10567573

B1: ANKRD17 (parent)
chain: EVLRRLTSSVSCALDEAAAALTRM

variants of: B1; experiment: protein stability index of a GFP-peptide fusion (GPS, HEK-293T) (PSI 1-6); higher = more stable; conditions: c terminus: a fixed tail appended;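 further: lentivirally expressed fusions sorted by FACS into six bins by GFP to DsRed ratio, PSI derived from sequencing read proportions per bin multiplied by bin number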
protein stability index for assorted variants

R5G    2.1
C12K    2.73
R5W    1.02
T7V    3
A13V    1.16

protein stability index lookup needed for D15A , thanks.
1.35

Ok, now E16L
3.18

Ok, now L3W
1.4

Ok, now C12I
1.71

Ok, now L14A
2.23

Ok, now C12S
2.69

Ok, now A20V
1.91

Ok, now L14F
1.23

Ok, now L3D
3.35

Ok, now V2C
2.34

Ok, now S9Q
2.21

Ok, now T7W
1.98

Ok, now A18E
1.24

Ok, now S8Q
1.41
